Values were extracted from patent US8362263B2.

- method: Hygroscopicity test (K.F. water content under various humidity)
- Assay type: physicochemical
- measurement.parameters: 95% RH, Post 1 Week, 25° C.
Listing of recorded water content (K.F. moisture %) by entry.
Please give a number only; it is taken to be in %.

molecule	water content (K.F. moisture %)
CCOC(=O)C1=C(COCCN)NC(C)=C(C(=O)OC)[C@@H]1c1ccccc1Cl.CCOC(=O)C1=C(COCCN)NC(C)=C(C(=O)OC)[C@@H]1c1ccccc1Cl.O.O.O.O.O.O=S(=O)(O)c1ccccc1.O=S(=O)(O)c1ccccc1 [C. Ex. 1, S-(−)-amlodipine besylate 2.5 hydrate, reference compound]	7.9

API: the following record is the query input.
Qu. For the molecule CCOC(=O)C1=C(COCCN)NC(C)=C(C(=O)OC)C1c1ccccc1Cl.O=C(O)CCCCC(=O)O (racemic) [C. Ex. 2, reference compound] , give its reported water content (K.F. moisture %).
Ans. 0.17

---

- method: Hygroscopicity test (K.F. water content under various humidity)
- Assay type: physicochemical
- measurement.parameters: Initial, 25° C.
measured.attribute: water content (K.F. moisture %)
Please give a number only; it is taken to be in %.

Qu. For the molecule CCOC(=O)C1=C(COCCN)NC(C)=C(C(=O)OC)C1c1ccccc1Cl.O=C(O)CCCCC(=O)O (racemic) [C. Ex. 2, reference compound] , give its reported water content (K.F. moisture %).
Ans. 0.10

Qu. For the molecule CCOC(=O)C1=C(COCCN)NC(C)=C(C(=O)OC)[C@@H]1c1ccccc1Cl.CCOC(=O)C1=C(COCCN)NC(C)=C(C(=O)OC)[C@@H]1c1ccccc1Cl.O.O.O.O.O.O=S(=O)(O)c1ccccc1.O=S(=O)(O)c1ccccc1 [C. Ex. 1, S-(−)-amlodipine besylate 2.5 hydrate, reference compound] , give its reported water content (K.F. moisture %).
Ans. 7.8

---

- method: physchem
- measurement.parameters: 25 °C, pH 6.8, aqueous buffer
measured.attribute: solubility

Qu. For the molecule `CCOC(=O)C1=C(COCCN)NC(C)=C(C(=O)OC)[C@@H]1c1ccccc1Cl` , give its reported solubility.
Ans. 41.3 mg/mL

---

- method: Hygroscopicity test (K.F. water content under various humidity)
- Format: physicochemical
- measurement.parameters: 60% RH, Post 1 Week, 25° C.
measured.attribute: water content (K.F. moisture %)
Please give a number only; it is taken to be in %.

Sample records with water content (K.F. moisture %):
molecule	water content (K.F. moisture %)
CCOC(=O)C1=C(COCCN)NC(C)=C(C(=O)OC)C1c1ccccc1Cl.O=C(O)CCCCC(=O)O (racemic) [C. Ex. 2, reference compound]	0.09
CCOC(=O)C1=C(COCCN)NC(C)=C(C(=O)OC)[C@@H]1c1ccccc1Cl [Ex. 2]	0.9
CCOC(=O)C1=C(COCCN)NC(C)=C(C(=O)OC)[C@@H]1c1ccccc1Cl [Ex. 1]	0.15

Qu. For the molecule CCOC(=O)C1=C(COCCN)NC(C)=C(C(=O)OC)[C@@H]1c1ccccc1Cl.CCOC(=O)C1=C(COCCN)NC(C)=C(C(=O)OC)[C@@H]1c1ccccc1Cl.O.O.O.O.O.O=S(=O)(O)c1ccccc1.O=S(=O)(O)c1ccccc1 [C. Ex. 1, S-(−)-amlodipine besylate 2.5 hydrate, reference compound] , give its reported water content (K.F. moisture %).
Ans. 7.6

---

- method: Hygroscopicity test (K.F. water content under various humidity)
- Type: physicochemical
- measurement.parameters: 25% RH, Post 1 Week, 25° C.
Listing of recorded water content (K.F. moisture %) by entry.
Please give a number only; it is taken to be in %.

compound	water content (K.F. moisture %)
CCOC(=O)C1=C(COCCN)NC(C)=C(C(=O)OC)[C@@H]1c1ccccc1Cl [Ex. 1]	0.15

Qu. For the compound CCOC(=O)C1=C(COCCN)NC(C)=C(C(=O)OC)[C@@H]1c1ccccc1Cl [Ex. 2] , give its reported water content (K.F. moisture %).
Ans. 0.8

Qu. For the compound CCOC(=O)C1=C(COCCN)NC(C)=C(C(=O)OC)[C@@H]1c1ccccc1Cl.CCOC(=O)C1=C(COCCN)NC(C)=C(C(=O)OC)[C@@H]1c1ccccc1Cl.O.O.O.O.O.O=S(=O)(O)c1ccccc1.O=S(=O)(O)c1ccccc1 [C. Ex. 1, S-(−)-amlodipine besylate 2.5 hydrate, reference compound] , give its reported water content (K.F. moisture %).
Ans. 7.55

Qu. For the compound CCOC(=O)C1=C(COCCN)NC(C)=C(C(=O)OC)C1c1ccccc1Cl.O=C(O)CCCCC(=O)O (racemic) [C. Ex. 2, reference compound] , give its reported water content (K.F. moisture %).
Ans. 0.10

---

- method: physchem
- measurement.parameters: 25 °C, water
measured.attribute: solubility (mg/mL)
Please give a number only; it is taken to be in mg/mL.

Qu. For the compound CCOC(=O)C1=C(COCCN)NC(C)=C(C(=O)OC)[C@@H]1c1ccccc1Cl [Ex. 1] , give its reported solubility.
Ans. 18.6

---

- method: Hygroscopicity test (K.F. water content under various humidity)
- Format: physicochemical
- measurement.parameters: 75% RH, Post 1 Week, 25° C.
measured.attribute: water content (K.F. moisture %)
Please give a number only; it is taken to be in %.

Qu. For the molecule CCOC(=O)C1=C(COCCN)NC(C)=C(C(=O)OC)C1c1ccccc1Cl.O=C(O)CCCCC(=O)O (racemic) [C. Ex. 2, reference compound] , give its reported water content (K.F. moisture %).
Ans. 0.15

Qu. For the molecule CCOC(=O)C1=C(COCCN)NC(C)=C(C(=O)OC)[C@@H]1c1ccccc1Cl.CCOC(=O)C1=C(COCCN)NC(C)=C(C(=O)OC)[C@@H]1c1ccccc1Cl.O.O.O.O.O.O=S(=O)(O)c1ccccc1.O=S(=O)(O)c1ccccc1 [C. Ex. 1, S-(−)-amlodipine besylate 2.5 hydrate, reference compound] , give its reported water content (K.F. moisture %).
Ans. 7.85
